# System: Escherichia coli TOP10
# test-method-notes: shrunken log2 fold change of peptide-encoding DNA abundance (4.5 h post-induction vs induction); higher = less antimicrobial activity (less host growth inhibition)
# measurement-parameters: time post-induction: 4.5 h; library: site-saturation at positions 5, 18, 19, 20
quantity-kind: shrunken log2 fold change

| residue-sequence | data-value |
| --- | --- |
| RRIRFRPPRLPRPRPRPLVIPRP | -0.78 |
| RRIRDRPPRLPRPRPRPRYKPRP | -0.202 |
| RRIRWRPPRLPRPRPRPDGDPRP | 0.36 |
| RRIRGRPPRLPRPRPRPWIRPRP | -0.164 |
| RRIRLRPPRLPRPRPRPAWPPRP | 0.42 |
| RRIRARPPRLPRPRPRPKSKPRP | 0.257 |
| RRIRERPPRLPRPRPRPHKVPRP | -0.361 |
| RRIRWRPPRLPRPRPRPKKMPRP | 0.0841 |
| RRIRHRPPRLPRPRPRPNDPPRP | -0.246 |
| RRIRLRPPRLPRPRPRPKNSPRP | -0.27 |
| RRIRERPPRLPRPRPRPEDSPRP | 0.00699 |
| RRIRGRPPRLPRPRPRPKLNPRP | 0.69 |
| RRIRSRPPRLPRPRPRPGEHPRP | 0.0053 |
| RRIRRRPPRLPRPRPRPCGHPRP | -0.0448 |
| RRIRRRPPRLPRPRPRPRSKPRP | 0.29 |
| RRIRCRPPRLPRPRPRPYGVPRP | -0.159 |
| RRIRERPPRLPRPRPRPHEPPRP | -0.0545 |
| RRIRWRPPRLPRPRPRPHIAPRP | 0.0545 |
| RRIRQRPPRLPRPRPRPFQVPRP | 0.0303 |
| RRIRTRPPRLPRPRPRPAWDPRP | 0.454 |
| RRIRERPPRLPRPRPRPTFQPRP | -0.103 |
| RRIRCRPPRLPRPRPRPFAPPRP | 0.229 |
| RRIRSRPPRLPRPRPRPDLRPRP | 0.248 |
| RRIRVRPPRLPRPRPRPRFTPRP | -0.0651 |
| RRIRKRPPRLPRPRPRPPPHPRP | 0.781 |
| RRIRNRPPRLPRPRPRPGEIPRP | 0.627 |
| RRIRGRPPRLPRPRPRPEGYPRP | 0.118 |
| RRIRKRPPRLPRPRPRPNVNPRP | -0.0135 |
| RRIRLRPPRLPRPRPRPNQCPRP | -0.206 |
| RRIRERPPRLPRPRPRPYDSPRP | -0.0594 |
| RRIRWRPPRLPRPRPRPMEDPRP | 0.383 |
| RRIRIRPPRLPRPRPRPMNGPRP | 0.00766 |

----------
Measured shrunken log2 fold change, listed per entry for reference.
# Tested on: Escherichia coli TOP10
# test-method-notes: shrunken log2 fold change of peptide-encoding DNA abundance (4.5 h post-induction vs induction); higher = less antimicrobial activity (less host growth inhibition)
# measurement-parameters: time post-induction: 4.5 h; library: site-saturation at positions 5, 18, 19, 20

| residue-sequence | shrunken log2 fold change |
| --- | --- |
| RRIRCRPPRLPRPRPRPNCVPRP | -0.00701 |
| RRIRERPPRLPRPRPRPSALPRP | -0.373 |
| RRIRPRPPRLPRPRPRPKHPPRP | 0.995 |
| RRIRERPPRLPRPRPRPIKIPRP | -0.681 |
| RRIRCRPPRLPRPRPRPCIPPRP | -0.01 |
| RRIRKRPPRLPRPRPRPYKMPRP | -0.47 |
| RRIRTRPPRLPRPRPRPHPMPRP | -0.167 |
| RRIRPRPPRLPRPRPRPQLYPRP | -0.0926 |
| RRIRVRPPRLPRPRPRPNEKPRP | -0.0575 |
| RRIRARPPRLPRPRPRPDADPRP | 1.63 |
| RRIRVRPPRLPRPRPRPHTYPRP | -0.154 |
| RRIRSRPPRLPRPRPRPFAGPRP | -0.00284 |
| RRIRWRPPRLPRPRPRPINEPRP | 0.402 |
| RRIRYRPPRLPRPRPRPYWGPRP | -0.0899 |
| RRIRTRPPRLPRPRPRPIIPPRP | -0.279 |

----------
# Tested on: Escherichia coli TOP10
# test-method-notes: shrunken log2 fold change of peptide-encoding DNA abundance (4.5 h post-induction vs induction); higher = less antimicrobial activity (less host growth inhibition)
# measurement-parameters: time post-induction: 4.5 h; library: site-saturation at positions 5, 18, 19, 20
Rule: shrunken log2 fold change of 0.05 or more gives Criterion met; anything lower gives Criterion not met.

| residue-sequence | label |
| --- | --- |
| RRIRDRPPRLPRPRPRPCRCPRP | Criterion not met |
| RRIRIRPPRLPRPRPRPDCDPRP | Criterion not met |
| RRIRFRPPRLPRPRPRPHNRPRP | Criterion met |
| RRIRTRPPRLPRPRPRPQGFPRP | Criterion not met |
| RRIRNRPPRLPRPRPRPHFHPRP | Criterion not met |
| RRIRSRPPRLPRPRPRPEGHPRP | Criterion not met |
| RRIRGRPPRLPRPRPRPQCGPRP | Criterion met |

----------
# Tested on: Escherichia coli TOP10;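 note: peptides expressed intracellularly from a pBAD plasmid library in pooled LB shake-flask culture, induced with 0.3% L-arabinose, DNA abundance read by NGS, three biological replicates, DESeq2 with apeglm shrinkage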
# test-method-notes: shrunken log2 fold change of peptide-encoding DNA abundance (4.5 h post-induction vs induction); higher = less antimicrobial activity (less host growth inhibition)
# measurement-parameters: time post-induction: 4.5 h; library: site-saturation at positions 5, 18, 19, 20
As shown below, each of these sequences has a reported shrunken log2 fold change value.

| residue-sequence | shrunken log2 fold change |
| --- | --- |
| RRIRERPPRLPRPRPRPSKVPRP | -0.365 |
| RRIRSRPPRLPRPRPRPIAVPRP | 0.22 |
| RRIRGRPPRLPRPRPRPPFRPRP | 0.681 |
| RRIRGRPPRLPRPRPRPGKSPRP | 0.176 |
| RRIRKRPPRLPRPRPRPRFMPRP | 0.102 |
| RRIRMRPPRLPRPRPRPLKCPRP | -0.0167 |
| RRIRLRPPRLPRPRPRPANFPRP | 0.0302 |
| RRIRERPPRLPRPRPRPTRTPRP | 0.374 |
| RRIRARPPRLPRPRPRPCRKPRP | -0.232 |
| RRIRVRPPRLPRPRPRPIVHPRP | -0.00223 |
| RRIRCRPPRLPRPRPRPMMQPRP | 0.0143 |
| RRIRQRPPRLPRPRPRPSILPRP | -0.177 |
| RRIRYRPPRLPRPRPRPKIYPRP | -0.884 |
| RRIRSRPPRLPRPRPRPDGIPRP | -0.0491 |
| RRIRIRPPRLPRPRPRPQQHPRP | -0.551 |
| RRIRNRPPRLPRPRPRPWCTPRP | -0.205 |
| RRIRNRPPRLPRPRPRPNSEPRP | -0.258 |
| RRIRVRPPRLPRPRPRPGVMPRP | -0.261 |
| RRIRYRPPRLPRPRPRPNAQPRP | -0.0122 |
| RRIRYRPPRLPRPRPRPGCDPRP | -0.282 |
| RRIRTRPPRLPRPRPRPSEHPRP | -0.383 |
| RRIRLRPPRLPRPRPRPRWWPRP | 0.13 |
| RRIRQRPPRLPRPRPRPMVDPRP | -0.00399 |
| RRIRGRPPRLPRPRPRPISKPRP | 0.0989 |
| RRIRSRPPRLPRPRPRPMHQPRP | -0.0538 |
| RRIRPRPPRLPRPRPRPGTFPRP | -0.226 |
| RRIRGRPPRLPRPRPRPVYWPRP | 1.38 |
| RRIRCRPPRLPRPRPRPLAEPRP | 0.242 |
| RRIRTRPPRLPRPRPRPNGCPRP | 0.0101 |
| RRIRHRPPRLPRPRPRPRLDPRP | -0.0149 |
| RRIRERPPRLPRPRPRPFKTPRP | -0.0273 |
| RRIRWRPPRLPRPRPRPFARPRP | 0.188 |
| RRIRHRPPRLPRPRPRPFAGPRP | -0.205 |
| RRIRSRPPRLPRPRPRPPWWPRP | 0.828 |
| RRIRFRPPRLPRPRPRPCVLPRP | -0.401 |
| RRIRNRPPRLPRPRPRPEFGPRP | -0.106 |
| RRIRCRPPRLPRPRPRPDSSPRP | -0.026 |
| RRIRVRPPRLPRPRPRPMLSPRP | -0.0455 |
| RRIRTRPPRLPRPRPRPKKTPRP | 0.0546 |
| RRIRKRPPRLPRPRPRPNMIPRP | 0.0348 |
| RRIRARPPRLPRPRPRPLLSPRP | 0.367 |
| RRIRVRPPRLPRPRPRPVNEPRP | 0.0839 |
| RRIRTRPPRLPRPRPRPRIIPRP | -0.215 |
| RRIRKRPPRLPRPRPRPLGQPRP | 0.991 |
| RRIRFRPPRLPRPRPRPEHMPRP | 0.0146 |
| RRIRTRPPRLPRPRPRPIVPPRP | -0.229 |
| RRIRFRPPRLPRPRPRPWVRPRP | 0.0245 |
| RRIRYRPPRLPRPRPRPKWRPRP | 0.0685 |
| RRIRYRPPRLPRPRPRPVYTPRP | -0.499 |
| RRIRDRPPRLPRPRPRPGPGPRP | 0.764 |
| RRIRWRPPRLPRPRPRPQKLPRP | 0.0774 |
| RRIRKRPPRLPRPRPRPYVYPRP | -0.154 |
| RRIRDRPPRLPRPRPRPIFLPRP | -0.205 |
| RRIRQRPPRLPRPRPRPQKHPRP | -0.324 |
| RRIRWRPPRLPRPRPRPLTHPRP | -0.00362 |
| RRIRWRPPRLPRPRPRPCVTPRP | 0.024 |
| RRIRFRPPRLPRPRPRPLKWPRP | -0.13 |
| RRIRFRPPRLPRPRPRPYHEPRP | -0.26 |
| RRIRHRPPRLPRPRPRPQDAPRP | -0.00992 |
| RRIRVRPPRLPRPRPRPERDPRP | -0.15 |
| RRIRFRPPRLPRPRPRPRFAPRP | 0.366 |
| RRIRFRPPRLPRPRPRPETIPRP | -0.103 |
| RRIRKRPPRLPRPRPRPLWWPRP | 0.477 |

Hello, the source for this data is the supplement of paper PMC9112550, in case you need it.
